- Test system: Field Corn
- METHOD NOTES: Preemergence Herbicidal Activity, Field Corn
- Format: in vivo
- TEST SETTINGS: Zea mays, pre-emergence, 1.0 kg/ha
Parameter plant injury at 1000 g/ha: see the listing below.
PROPERTY LABEL: plant injury at 1000 g/ha (%)

{"SMILES TEXT": "CCS(=O)(=O)Nc1cc(-n2nnn(CCCF)c2=O)c(Cl)cc1F", "PROPERTY LABEL": "plant injury at 1000 g/ha", "REPORTED": 70}
{"SMILES TEXT": "CCCN(c1cc(-n2nnn(CCCF)c2=O)c(F)cc1Cl)S(=O)(=O)CC", "PROPERTY LABEL": "plant injury at 1000 g/ha", "REPORTED": 100}
{"SMILES TEXT": "CS(=O)(=O)N(c1cc(-n2nnn(CCCF)c2=O)c(F)cc1Cl)S(C)(=O)=O", "PROPERTY LABEL": "plant injury at 1000 g/ha", "REPORTED": 100}
{"SMILES TEXT": "CS(=O)(=O)Nc1cc(-n2nnn(CCCF)c2=O)c(Cl)cc1F", "PROPERTY LABEL": "plant injury at 1000 g/ha", "REPORTED": 10}
{"SMILES TEXT": "CS(=O)(=O)N(c1cc(-n2nnn(CCCF)c2=O)c(F)cc1Br)S(C)(=O)=O", "PROPERTY LABEL": "plant injury at 1000 g/ha", "REPORTED": 95}
{"SMILES TEXT": "CCOC(=O)CN(c1cc(-n2nnn(CCCF)c2=O)c(F)cc1Cl)S(=O)(=O)CC", "PROPERTY LABEL": "plant injury at 1000 g/ha", "REPORTED": 10}
{"SMILES TEXT": "CCN(c1cc(-n2nnn(CCCF)c2=O)c(F)cc1Cl)S(=O)(=O)CC", "PROPERTY LABEL": "plant injury at 1000 g/ha", "REPORTED": 100}
{"SMILES TEXT": "CCS(=O)(=O)N(c1cc(-n2nnn(CCCF)c2=O)c(F)cc1Br)S(=O)(=O)CC", "PROPERTY LABEL": "plant injury at 1000 g/ha", "REPORTED": 95}
{"SMILES TEXT": "CCCS(=O)(=O)N(c1cc(-n2nnn(CCCF)c2=O)c(F)cc1Br)S(=O)(=O)CCC", "PROPERTY LABEL": "plant injury at 1000 g/ha", "REPORTED": 95}
